Species on record: Cavia porcellus
Experiment: Chronotropic activity at L type calcium channel in guinea pig right atrium assessed as decrease in spontaneous beating at 10 uM relative to control
Assay type: tissue-based
Parameters: scale not given: the % may be the effect or the level left
Conditions: Cardiac atrium
If the reported Activity equals or exceeds 80%, assign y. If not, assign n.

[
  {
    "input smiles": "COC(=O)C1=C(C)NC(C)=C(C(=O)OC)C1c1c(C(F)(F)F)nc2sc(C)cn12",
    "discrete label": "n"
  },
  {
    "input smiles": "COC(=O)C1=C(C)NC(C)=C(C(=O)OC)C1c1c(-c2cc(OC)c([N+](=O)[O-])cc2OC)nc2sc(C)cn12",
    "discrete label": "y"
  },
  {
    "input smiles": "CCc1cn2c(C3C(C(=O)OC)=C(C)NC(C)=C3C(=O)OC)c(-c3cc(OC)ccc3OC)nc2s1",
    "discrete label": "y"
  },
  {
    "input smiles": "COC(=O)C1=C(C)NC(C)=C(C(=O)OC)C1c1c(Cl)nc2scc(C)n12",
    "discrete label": "n"
  },
  {
    "input smiles": "COC(=O)C1=C(C)NC(C)=C(C(=O)OC)C1c1c(-c2cc(OC)c([N+](=O)[O-])cc2OC)nc2sccn12",
    "discrete label": "n"
  }
]

* * *

// Activity lookup, one value per entry
Organism: Cavia porcellus
Experiment: Activity at L type calcium channel in K+ depolarized guinea pig aortic strip assessed as inhibition of calcium induced contraction at 100 uM
Type: tissue-based
Set-up: scale not given: the % may be the effect or the level left
Settings: Aorta
reported endpoint: Activity

[
  {
    "input smiles": "COC(=O)C1=C(C)NC(C)=C(C(=O)OC)C1c1c(-c2ccc(OC)cc2OC)nc2sccn12",
    "result": "42%"
  },
  {
    "input smiles": "COC(=O)C1=C(C)NC(C)=C(C(=O)OC)C1c1c(-c2cc(OC)c(OC)cc2[N+](=O)[O-])nc2sccn12",
    "result": "35%"
  },
  {
    "input smiles": "COC(=O)C1=C(C)NC(C)=C(C(=O)OC)C1c1c(-c2cccc(OC(F)(F)F)c2)nc2sccn12",
    "result": "26%"
  },
  {
    "input smiles": "COC(=O)C1=C(C)NC(C)=C(C(=O)OC)C1c1c(-c2c(OC)ccc(OC)c2[N+](=O)[O-])nc2sc(Cl)cn12",
    "result": "32%"
  },
  {
    "input smiles": "COC(=O)C1=C(C)NC(C)=C(C(=O)OC)C1c1c(-c2ccccc2C(F)(F)F)nc2sccn12",
    "result": "24%"
  },
  {
    "input smiles": "COC(=O)C1=C(C)NC(C)=C(C(=O)OC)C1c1c(-c2cc(OC)c(OC)c(OC)c2)nc2sccn12",
    "result": "44%"
  },
  {
    "input smiles": "COC(=O)C1=C(C)NC(C)=C(C(=O)OC)C1c1c(-c2cc(OC)ccc2OC)nc2sccn12",
    "result": "24%"
  },
  {
    "input smiles": "COC(=O)C1=C(C)NC(C)=C(C(=O)OC)C1c1c(-c2cc(OC)ccc2OC)nc2sc(C)cn12",
    "result": "15%"
  },
  {
    "input smiles": "CCCc1cn2c(C3C(C(=O)OC)=C(C)NC(C)=C3C(=O)OC)c(-c3c(OC)ccc(OC)c3[N+](=O)[O-])nc2s1",
    "result": "5%"
  },
  {
    "input smiles": "COC(=O)C1=C(C)NC(C)=C(C(=O)OC)C1c1c(-c2c(OC)ccc(OC)c2[N+](=O)[O-])nc2sc(C)cn12",
    "result": "27%"
  }
]

Where do the numbers come from? From ChEMBL document CHEMBL1142303.
